# System: LoVo
# assay overview: SRB colorimetric assay of cell growth and viability, LoVo
# Type: cell-based, human
# stated conditions: 48 hours exposure
# Method: The finality of this assay is to interrupt the growth of a “in vitro” tumor cell culture by means a continued exhibition of the cells to the sample to be testing. […] Cells are seeded in 96 well microtiter plates, at 5×10^3 cells per well in aliquots of 195 μL medium, and they are allowed to attach to the plate surface by growing in drug free medium for 18 hours. […] Optical densities are read on a automated spectrophotometric plate reader at a single wavelength of 490 nm. […]
Where a SMILES comes first, the peptide text is derived from it. Bridges are numbered along the chain shown (N, C = ends). [ ]: non-standard residue; d: D form. The star is where a group is joined. d(aIle) = CC[C@H](C)[C@@H](N)C(=O)O; d(aThr) = C[C@@H](O)[C@@H](N)C(=O)O; Hexanoyl(5-Me) = CC(C)CCCC(=O)*; Orn = NCCC[C@H](N)C(=O)O; Dhb = C/C=C(\N)C(=O)O
Cut-off 0.1 µM on GI50: below means 1, at or above means -1.

molecule	group label
C/C=C1\NC(=O)[C@H](Cc2ccccc2)NC(=O)[C@@H](C(C)C)NC(=O)[C@@H]([C@@H](C)CC)NC(=O)[C@H](NC(=O)[C@H](NC(=O)[C@H](CCCN)NC(=O)[C@H]2CCCN2C(=O)[C@H](NC(=O)[C@H](Cc2ccccc2)NC(=O)[C@@H](NC(=O)[C@H](NC(=O)CCCC(C)C)C(C)C)[C@@H](C)O)C(C)C)[C@@H](C)CC)[C@@H](C)OC(=O)[C@H](C(C)C)NC1=O [Compound 43, [Phe^11]-KF] ({Hexanoyl(5-Me)}-[dV]TF[dV][dP][Orn][d(aIle)][d(aThr)][d(aIle)][dV]F[Dhb]V; ester 8-C)	-1
C/C=C1\NC(=O)[C@H](Cc2ccccc2)NC(=O)[C@@H](C(C)C)NC(=O)[C@@H]([C@@H](C)CC)NC(=O)[C@H](NC(=O)[C@H](NC(=O)[C@H](CCCN)NC(=O)[C@H]2CCCN2C(=O)[C@H](NC(=O)[C@@H](NC(=O)[C@@H](NC(=O)[C@H](NC(=O)c2ccccc2)C(C)C)[C@@H](C)O)C(C)C)C(C)C)[C@@H](C)CC)[C@@H](C)OC(=O)[C@H](C(C)C)NC1=O [Compound 20, [Bza^14]-KF]	-1
C/C=C1\NC(=O)[C@H](Cc2ccccc2)NC(=O)[C@@H](C(C)C)NC(=O)[C@@H]([C@@H](C)CC)NC(=O)[C@H](NC(=O)[C@H](NC(=O)[C@H](CCCN)NC(=O)[C@H]2CCCN2C(=O)[C@H](NC(=O)[C@@H](NC(=O)[C@@H](NC(=O)[C@@H](CCC(=O)O)NC(=O)CCCC(C)C)[C@@H](C)O)C(C)C)C(C)C)[C@@H](C)CC)[C@@H](C)OC(=O)[C@H](C(C)C)NC1=O [Compound 39, [D-Glu^13]-KF]	-1
C/C=C1\NC(=O)[C@H](Cc2ccccc2)NC(=O)[C@@H](C(C)C)NC(=O)[C@@H]([C@@H](C)CC)NC(=O)[C@H](NC(=O)[C@H](NC(=O)[C@H](CCCN)NC(=O)[C@H]2CCCN2C(=O)[C@H](NC(=O)[C@@H](NC(=O)[C@@H](NC(=O)[C@H](NC(=O)c2ccc(C(F)(F)F)cc2)C(C)C)[C@@H](C)O)C(C)C)C(C)C)[C@@H](C)CC)[C@@H](C)OC(=O)[C@H](C(C)C)NC1=O [Compound 21, [p-CF3Bza^14]-KF]	1
C/C=C1\NC(=O)[C@H](Cc2ccccc2)NC(=O)[C@@H](C(C)C)NC(=O)[C@@H]([C@@H](C)CC)NC(=O)[C@H](NC(=O)[C@H](NC(=O)[C@H](CCCN)NC(=O)[C@H]2CCCN2C(=O)[C@H](NC(=O)[C@@H](NC(=O)[C@@H](NC(=O)[C@@H](Cc2ccccc2)NC(=O)CCCC(C)C)[C@@H](C)O)C(C)C)C(C)C)[C@@H](C)CC)[C@@H](C)OC(=O)[C@H](C(C)C)NC1=O [Compound 36, [D-Phe^13]-KF]	-1
